Cited source: patent US20200216532A1

Molecular target: antibodies against ISV in serum sample IHUS#B09032311A1
Assay: ECL drug-displacement assay vs labelled SEQ ID NO:1
So I've got a bunch of binders here, and I need their ECLU confirmatory assay values.
Report as a plain number; the unit ECLU is understood.

(Q) Data request, read-out ECLU confirmatory assay, for SEQ ID NO: 24, Wildtype VHH + A14P (VHH) VHH: EVQLVESGGGLVQPGGSLRLSCAASGRTFNNYAMGWFRRAPGKEREFVAAITRSGVRSGVSAIYGDSVKDRFTISRDNAKNTLYLQMNSLKPEDTAVYTCAASAIGSGALRRFEYDYSGQGTQVTVSS
(A) 56

(Q) Entry under review: SEQ ID NO: 26, Wildtype VHH + Q108L (VHH) VHH: EVQLVESGGGLVQAGGSLRLSCAASGRTFNNYAMGWFRRAPGKEREFVAAITRSGVRSGVSAIYGDSVKDRFTISRDNAKNTLYLQMNSLKPEDTAVYTCAASAIGSGALRRFEYDYSGQGTLVTVSS . Reported ECLU confirmatory assay?
(A) 59

(Q) # lookup: ECLU confirmatory assay of SEQ ID NO: 25, Wildtype VHH + K83R (VHH) VHH: EVQLVESGGGLVQAGGSLRLSCAASGRTFNNYAMGWFRRAPGKEREFVAAITRSGVRSGVSAIYGDSVKDRFTISRDNAKNTLYLQMNSLRPEDTAVYTCAASAIGSGALRRFEYDYSGQGTQVTVSS
(A) 62

(Q) Form field: reported ECLU confirmatory assay of SEQ ID NO: 23, Wildtype VHH (VHH) VHH: EVQLVESGGGLVQAGGSLRLSCAASGRTFNNYAMGWFRRAPGKEREFVAAITRSGVRSGVSAIYGDSVKDRFTISRDNAKNTLYLQMNSLKPEDTAVYTCAASAIGSGALRRFEYDYSGQGTQVTVSS
(A) 60
